Target: human recombinant dopamine D3 receptor (Homo sapiens)
Sequence (P35462 whole entry): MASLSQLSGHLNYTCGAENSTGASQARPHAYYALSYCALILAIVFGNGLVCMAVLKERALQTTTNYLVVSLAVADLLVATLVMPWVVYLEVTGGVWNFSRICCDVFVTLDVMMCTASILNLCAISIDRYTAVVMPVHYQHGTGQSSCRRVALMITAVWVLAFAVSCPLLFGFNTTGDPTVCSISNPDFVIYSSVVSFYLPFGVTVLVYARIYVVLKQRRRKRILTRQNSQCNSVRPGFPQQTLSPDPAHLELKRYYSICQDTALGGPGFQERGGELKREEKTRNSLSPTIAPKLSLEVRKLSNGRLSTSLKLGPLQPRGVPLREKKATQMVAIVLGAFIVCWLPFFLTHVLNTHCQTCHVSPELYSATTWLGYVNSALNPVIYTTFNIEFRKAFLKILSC
Test: Inhibition of [3H]spiperone binding, human recombinant dopamine D3 receptor
Settings: cells expressing human recombinant D3 receptor, read-out: inhibition constant (Ki), dopamine D3 receptor
Counter-ions that a name gives are not always drawn.
Measurement Label: Ki
Note: state the figure and append the unit.

Field request: Ki | item: CS(=O)(=O)Nc1cccc(N2CCN(CCCCc3coc4cc5c(cc4c3=O)OCO5)CC2)c1 [compound according to the invention, hydrochloride]
170 pM
